- targetOrTestSystem: GABA-A receptor; alpha-1/beta-3/gamma-2 (Homo sapiens, UniProt P14867+P18507+P28472)
- Sequence (P14867 whole entry): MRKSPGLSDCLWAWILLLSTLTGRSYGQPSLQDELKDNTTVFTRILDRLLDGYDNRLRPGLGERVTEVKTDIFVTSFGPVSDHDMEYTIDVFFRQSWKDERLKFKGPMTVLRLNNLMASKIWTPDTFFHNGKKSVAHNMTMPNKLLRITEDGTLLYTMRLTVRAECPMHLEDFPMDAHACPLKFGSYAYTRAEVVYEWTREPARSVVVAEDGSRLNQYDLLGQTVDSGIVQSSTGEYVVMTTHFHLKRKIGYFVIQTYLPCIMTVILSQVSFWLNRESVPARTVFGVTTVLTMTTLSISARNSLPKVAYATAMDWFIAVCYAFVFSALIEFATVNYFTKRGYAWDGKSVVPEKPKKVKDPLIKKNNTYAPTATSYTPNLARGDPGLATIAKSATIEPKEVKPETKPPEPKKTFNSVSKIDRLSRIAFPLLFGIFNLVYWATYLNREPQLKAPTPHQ
- Sequence (P18507 whole entry): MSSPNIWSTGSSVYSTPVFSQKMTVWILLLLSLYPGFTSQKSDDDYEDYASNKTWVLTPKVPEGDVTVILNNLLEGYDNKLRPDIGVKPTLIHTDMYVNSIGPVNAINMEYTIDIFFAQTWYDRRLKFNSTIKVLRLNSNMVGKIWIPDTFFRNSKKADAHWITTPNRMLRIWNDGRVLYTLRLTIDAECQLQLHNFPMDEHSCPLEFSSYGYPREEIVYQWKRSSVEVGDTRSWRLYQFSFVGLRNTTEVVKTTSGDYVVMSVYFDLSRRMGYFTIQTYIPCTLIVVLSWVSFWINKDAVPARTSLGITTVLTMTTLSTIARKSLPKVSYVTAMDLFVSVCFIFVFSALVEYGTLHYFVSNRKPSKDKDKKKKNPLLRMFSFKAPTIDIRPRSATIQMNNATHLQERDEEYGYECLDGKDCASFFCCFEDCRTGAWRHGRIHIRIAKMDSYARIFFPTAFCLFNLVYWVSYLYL
- Sequence (P28472 whole entry): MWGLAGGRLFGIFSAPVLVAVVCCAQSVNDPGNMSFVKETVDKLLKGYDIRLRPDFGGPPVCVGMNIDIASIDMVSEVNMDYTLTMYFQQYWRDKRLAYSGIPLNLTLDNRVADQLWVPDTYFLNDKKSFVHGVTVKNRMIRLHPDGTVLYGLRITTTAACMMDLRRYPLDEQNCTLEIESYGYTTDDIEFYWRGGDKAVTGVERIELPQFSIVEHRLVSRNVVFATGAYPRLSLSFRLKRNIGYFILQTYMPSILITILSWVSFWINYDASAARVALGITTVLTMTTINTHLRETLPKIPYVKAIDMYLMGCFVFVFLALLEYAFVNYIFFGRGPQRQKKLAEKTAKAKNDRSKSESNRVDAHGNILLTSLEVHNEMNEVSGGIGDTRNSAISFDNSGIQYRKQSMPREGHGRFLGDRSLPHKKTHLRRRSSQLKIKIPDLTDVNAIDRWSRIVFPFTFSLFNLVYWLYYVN
- assayOverview: Displacement of [3H]Ro-151788 from human GABA-A receptor alpha-1-beta-3-gamma-2 subunits expressed in L(tk-) cells
- Assay type: cell-based
pKi: −log10 of the molar value.
testReadout: pKi

{"columns": ["structureSmilesString", "pKi"],
 "data": [
  ["COC(=O)c1cc(-c2ccc(OC)cc2)c(-c2cccnc2)n(C)c1=O", 6.17]
]}

I. COC(=O)c1cc(-c2ccc(OC)cc2)c(-c2ccccc2)n(C)c1=O
II. Cc1csc(-c2cc(-c3ccncc3)c(-c3ccncc3)n(C)c2=O)n1
When their pKi values are compared, which is larger, I or II ? The response must carry the label of the picked entry.
II
